target: Hck (UniProt P08631); assay: phosphorylation enrichment, bacterial display (enrichment ratio); higher = better substrate or ligand; peptides without Tyr show the background;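 further: 11-residue human phosphosite peptides and single-mutation variants displayed on the E. coli surface, counted by deep sequencing, each peptide's frequency after selection divided by its frequency in the unselected input library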;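 further: frequency after pTyr selection over input frequency; kinase dosed for 20-30% of maximal phosphorylation in three min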
Sequence (P08631 whole entry, looked up): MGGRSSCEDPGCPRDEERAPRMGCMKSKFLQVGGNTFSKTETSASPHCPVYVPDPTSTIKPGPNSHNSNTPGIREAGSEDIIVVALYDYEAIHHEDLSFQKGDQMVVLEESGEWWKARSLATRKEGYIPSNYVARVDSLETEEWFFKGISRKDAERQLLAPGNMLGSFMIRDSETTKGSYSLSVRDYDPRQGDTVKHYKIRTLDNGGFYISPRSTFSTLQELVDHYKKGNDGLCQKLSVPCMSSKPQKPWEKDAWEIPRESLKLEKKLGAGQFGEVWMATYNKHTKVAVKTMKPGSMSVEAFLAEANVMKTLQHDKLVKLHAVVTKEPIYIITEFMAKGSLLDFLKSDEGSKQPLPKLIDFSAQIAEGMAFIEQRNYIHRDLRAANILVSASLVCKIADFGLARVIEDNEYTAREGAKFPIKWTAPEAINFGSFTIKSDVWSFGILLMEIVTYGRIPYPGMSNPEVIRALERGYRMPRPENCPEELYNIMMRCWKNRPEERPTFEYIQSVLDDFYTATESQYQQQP
This listing pairs sequences with measured phosphorylation enrichment.
// response body must contain only the number

SFPSYYTSHVQ [NEFL_Y443] = 1.1
KGELRYMHSPV [ABCD1_Y281_R285P] = 0.345

Now look at this entry.
// returns reported phosphorylation enrichment for input AVLVQYYMEHH [PTPN11_Y80_E76V]
0.875

---

biological target: Fyn (UniProt P06241); assay: phosphorylation enrichment, bacterial display (enrichment ratio); higher = better substrate or ligand; peptides without Tyr show the background
Sequence (P06241 whole entry, looked up): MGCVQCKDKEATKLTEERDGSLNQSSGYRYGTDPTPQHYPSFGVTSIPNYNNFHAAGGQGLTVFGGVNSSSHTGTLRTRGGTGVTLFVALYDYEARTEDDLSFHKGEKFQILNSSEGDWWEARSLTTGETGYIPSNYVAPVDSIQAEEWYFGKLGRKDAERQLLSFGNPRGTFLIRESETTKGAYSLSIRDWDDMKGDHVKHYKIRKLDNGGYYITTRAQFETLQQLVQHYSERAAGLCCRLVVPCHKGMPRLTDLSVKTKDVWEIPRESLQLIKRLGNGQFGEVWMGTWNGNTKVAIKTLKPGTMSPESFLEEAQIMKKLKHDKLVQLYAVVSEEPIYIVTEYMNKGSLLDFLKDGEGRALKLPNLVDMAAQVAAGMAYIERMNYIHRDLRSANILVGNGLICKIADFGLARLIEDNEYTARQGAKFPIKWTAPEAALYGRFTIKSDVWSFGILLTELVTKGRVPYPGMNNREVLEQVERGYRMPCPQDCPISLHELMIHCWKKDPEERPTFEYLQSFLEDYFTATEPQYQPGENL
measure: phosphorylation enrichment
// response body must contain only the number

Study these solved cases before continuing.
ASNFNYFFHRE [KCNA1_Y413_V408A_YF] = 0.372
LEQRPYRRGSE [KCNJ12_Y427_E430G] = 0.424

Now look at this entry.
Which phosphorylation enrichment is reported with Fyn (UniProt P06241) for this entry: DPNQQYFIAMD [TBX15_Y159_H156N_YF] ?
0.444

Attribution: the supplement of paper PMC10065799
